Each entry below lists one item and its recorded LD50 at 168 h value.
experiment: in vivo; format: in vivo; details: mouse, in vivo, po; mice

COc1cc2nc(N3CCN(C(=O)C=Cc4ccccc4)CC3)nc(N)c2cc1OC | > 5000 mg/kg

Switching to the query record.
q: Give a short answer stating reported LD50 at 168 h for COc1cc2nc(N3CCN(C(=O)C=Cc4ccco4)CC3)nc(N)c2cc1OC .
a: > 5000 mg/kg

====

// values below are reported Changes in average blood pressures after administration
tested on: spontaneously hypertensive rats (SHR); experiment: Antihypertensive effect, oral administration to spontaneously hypertensive rats (mean blood pressure and heart rate); type: in vivo, rat; conditions: Table 3; SHR, p.o., 3 mg./kg., 1 hr.
Your answer is read as mmHg, so omit the unit and give the number.

COc1cc2nc(N3CCN(C(=O)C=Cc4cccs4)CC3)nc(N)c2cc1OC | -45
COc1cc2nc(N3CCCN(C(=O)C=Cc4ccco4)CC3)nc(N)c2cc1OC | -20
COc1cc2nc(N3CCN(C(=O)C=Cc4ccncc4)CC3)nc(N)c2cc1OC | -9
COc1cc2nc(N3CCN(C(=O)C=Cc4ccccn4)CC3)nc(N)c2cc1OC | -40
COc1cc2nc(N3CCN(C(=O)C=Cc4cccnc4)CC3)nc(N)c2cc1OC | -28
COc1cc2nc(N3CCN(C(=O)C=Cc4ccc([N+](=O)[O-])o4)CC3)nc(N)c2cc1OC | -15

q: Could you please provide reported Changes in average blood pressures after administration for COc1cc2nc(N3CCN(C(=O)C=Cc4ccco4)CC3)nc(N)c2cc1OC ? Thanks!
a: -74

q: Specify measured Changes in average blood pressures after administration for COc1cc2nc(N3CCN(C(=O)C=Cc4ccsc4)CC3)nc(N)c2cc1OC .
a: -47

q: Provide Changes in average blood pressures after administration value for the following compound: COc1cc2nc(N3CCN(C(=O)C(C)=Cc4cccs4)CC3)nc(N)c2cc1OC
a: -65

q: Answer with the recorded Changes in average blood pressures after administration of COc1cc2nc(N3CCN(C(=O)C=Cc4sccc4C)CC3)nc(N)c2cc1OC only.
a: -18

q: Using known records, supply Changes in average blood pressures after administration for COc1cc2nc(N3CCN(C(=O)C=Cc4ccc(Cl)o4)CC3)nc(N)c2cc1OC
a: -20

q: Provide measured Changes in average blood pressures after administration value, entry: COc1cc2nc(N3CCN(C(=O)c4ccco4)CC3)nc(N)c2cc1OC [Prazosin, reference compound]
a: -50

q: Entry COc1cc2nc(N3CCCN(C(=O)C=Cc4cccnc4)CC3)nc(N)c2cc1OC needs its Changes in average blood pressures after administration filled in; supply it.
a: -9

q: Give a short answer stating reported Changes in average blood pressures after administration for COc1cc2nc(N3CCCN(C(=O)C=Cc4cccs4)CC3)nc(N)c2cc1OC .
a: -22

q: For the compound COc1cc2nc(N3CCN(C(=O)C=Cc4ccc(C)s4)CC3)nc(N)c2cc1OC , give its reported Changes in average blood pressures after administration.
a: -18

====

system: spontaneously hypertensive rats (SHR); experiment: Antihypertensive effect, oral administration to spontaneously hypertensive rats (mean blood pressure and heart rate); assay type: in vivo, rat; conditions: Table 1; SHR, p.o., 10 mg./kg., 3 hrs.
Label -1 if Change in blood pressure after 3 hrs. from administration falls below -20 mmHg; label 1 in every other case.

Solved cases (6 shown):
COc1cc2nc(N3CCN(C(=O)C=Cc4ccc(Br)cc4)CC3)nc(N)c2cc1OC [compound 21] | -1
CCOc1ccc(C=CC(=O)N2CCN(c3nc(N)c4cc(OC)c(OC)cc4n3)CC2)cc1 [Compound No. 10] | -1
COc1cc2nc(N3CCN(C(=O)C=Cc4ccccc4C)CC3)nc(N)c2cc1OC [compound 2] | -1
COc1cc2nc(N3CCN(C(=O)C=Cc4cccc(C(F)(F)F)c4)CC3)nc(N)c2cc1OC [compound 22] | 1
COc1cc2nc(N3CCN(C(=O)C=Cc4ccc(N(C)C)cc4)CC3)nc(N)c2cc1OC [compound 23] | 1
COc1cccc(C=CC(=O)N2CCN(c3nc(N)c4cc(OC)c(OC)cc4n3)CC2)c1 [compound 7] | 1

q: Hi team, for COc1cc(C=CC(=O)N2CCN(c3nc(N)c4cc(OC)c(OC)cc4n3)CC2)cc(OC)c1 [compound 13] , is the recorded Change in blood pressure after 3 hrs. from administration at or above -20 mmHg?
a: 1

q: Check the entry COc1cc2nc(N3CCN(C(=O)C=Cc4ccc(C)cc4)CC3)nc(N)c2cc1OC [compound 4] : does Change in blood pressure after 3 hrs. from administration equal or exceed -20 mmHg?
a: 1
